test system: SK-MEL-2 melanoma; assay: NCI tumour cell line growth inhibition, 48 h
As shown below, each of these compounds has a reported TGI value.
Readout name: TGI

INSERT INTO measurements (compound, assay_result) VALUES
  ('O=C1OC(O)c2cc3c(cc21)OCO3 (stereo not given)', '> 100 µM'),
  ('CC(C)=[CH][Sb]([Br])([CH]=C(C)C)([CH]=C(C)C)[c]1ccccc1', '86.7 µM'),
  ('CCOC(=O)C1C(O)CC2c3ccccc3-c3ccccc3C21 (stereo not given)', '> 100 µM'),
  ('O=C(Cc1nc2ccccc2o1)C(=O)Nc1ccccc1C(F)(F)F', '> 100 µM'),
  ('C/C(=C\COc1cc(O)c2c(c1)C(=O)c1cc(C)cc(O)c1C2=O)CCC1OC1(C)C (stereo not given)', '> 100 µM'),
  ('CCC(=O)/C=C/c1ccccc1', '> 100 µM'),
  ('CS(=O)(=O)O[C@H]1C(=O)N(c2cc3c4ccccc4ccc3c3ccccc23)[C@@H]1c1ccccc1', '> 100 µM'),
  ('COCOc1cc(OCOC)cc(C(=O)Oc2ccccc2)c1', '> 100 µM'),
  ('O=C(COc1nc2ccccc2nc1-c1ccccc1)Nc1ccc(Cl)cc1', '58 µM'),
  ('CC1=CC(C)(C)[C@H]2O[C@@]3(O)C[C@]4(C)[C@H]5C[C@@](C(C)C)(O[C@H]4c4ccoc4)O[C@H]4[C@]5(C3)O[C@@]1(O)[C@]24O', '> 100 µM');
